Assay: Pharmacokinetic pilot study, YM155 in blood/plasma after single i.v. administration
Format: in vivo, mice
Settings: female, NMRI nu/nu, mouse, plasma, iv; single i.v. 1 mg/kg, NCA; read-out: MRT0-∞
Description: Animal experiments were conducted in compliance with the national regulations and have been approved by the local ethical committee for animal experimentation. NMRI nu/nu female mice (25 g, Charles River, Massachusetts, USA) were housed in a temperature-controlled room (approximately 22°C) with 55 to 65% relative humidity, a photoperiod of 12/12 h with free access to water and pelleted rodent food. […]
Measurement type: MRT inf

The molecule listed as COCCn1c2c([n+](Cc3cnccn3)c1C)C(=O)c1ccccc1C2=O [YM155, Sepantronium bromide] shows MRT inf equal to 20.4 min

Reference source for all entries: paper PMC5842274
